Counter-ions that a name gives are not always drawn.
Notes on pKi obtained with α7 nAChR (Rattus norvegicus (Rat)).
Sequence (Q05941 23-502): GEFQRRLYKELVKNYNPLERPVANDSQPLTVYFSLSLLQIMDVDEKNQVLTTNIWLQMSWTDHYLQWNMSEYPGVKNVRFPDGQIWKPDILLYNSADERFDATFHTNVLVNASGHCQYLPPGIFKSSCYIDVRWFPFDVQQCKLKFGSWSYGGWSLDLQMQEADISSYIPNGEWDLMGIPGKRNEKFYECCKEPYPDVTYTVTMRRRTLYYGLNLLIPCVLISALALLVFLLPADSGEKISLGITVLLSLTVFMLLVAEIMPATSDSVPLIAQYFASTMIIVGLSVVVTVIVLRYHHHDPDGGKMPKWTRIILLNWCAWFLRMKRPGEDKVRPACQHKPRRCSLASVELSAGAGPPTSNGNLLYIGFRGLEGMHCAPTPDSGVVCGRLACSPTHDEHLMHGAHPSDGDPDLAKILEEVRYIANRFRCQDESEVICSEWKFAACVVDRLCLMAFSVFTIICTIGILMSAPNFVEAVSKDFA
Convention used: pKi is expressed as -log10 of the molar concentration.

Guide cases for pKi, answers given:
{"Compound": "O=C(CC1CN2CCC1CC2)Nc1ccc2ccccc2c1 (stereo not shown) [Example 4, hydrochloride]", "Result value": 7.38}
{"Compound": "O=C(CC1CN2CCC1CC2)Nc1cc2cccc(Br)c2s1 (stereo not shown) [Example 1, hydrochloride]", "Result value": 6.92}
{"Compound": "O=C(CC1CN2CCC1CC2)Nc1ccc2cccnc2c1 (stereo not shown) [Example 3, hydrochloride]", "Result value": 6.55}

Q. Tell me pKi reported for O=C(CC1CN2CCC1CC2)Nc1ccc2cccc([N+](=O)[O-])c2c1 (stereo not shown) [Example 5, hydrochloride]
A. 6.77
